Recorded values, source paper PMC7642358.

# assayed-system: SARS-CoV-2 spike receptor-binding domain (2019-nCoV RBD-SD1, residues 319–566) (SARS-CoV-2, UniProt P0DTC2)
quantity: binding result

# count of solved cases: 5
binder="52 (VHH) VHH: QVQLVESGGGLVQAGGSLRLSCAASGFPVNYNWMEWYRQAPGKEREWVAAITSWGYKTYYADSVKGRFTISRDNAKNTVYLQMNSLKPEDTAVYYCNVKDEGMWQHYYDYWGQGTQVTVS" reported_result=binds
binder="94 (VHH) VHH: QVQLVESGGGSVQAGGSLRLSCAASGYITMIEYLGWFRQAPGKEREGVAALNTHTGGTYYADSVKGRFTVSLDNAKNTVYLQMNSLKPEDTALYYCAAARWGRYEPLHYAYYSYWGQGTQVTVS" reported_result=binds
binder="30 (VHH) VHH: QVQLVESGGGLVQAGGSLRLSCAASGFPVWYKEMEWYRQAPGKEREWVAAITSAGHHTYYADSVKGRFTISRDNAKNTVYLQMNSLKPEDTAVYYCYVYVGESYIGQGTQVTVS" reported_result=binds
binder="Sybody 4 (VHH) VHH: QVQLVESGGGLVQAGGSLRLSCAASGFPVNGFNMEWYRQAPGKEREWVAAITSEGNYTYYADSVKGRFTISRDNAKNTVYLQMNSLKPEDTAVYYCYVYVGQSYIGQGTQVTVS" reported_result=binds
binder="54 (VHH) VHH: QVQLVESGGGLVQAGGSLRLSCAASGFPVWNTWMEWYRQAPGKEREWVAAITSYGFKTYYADSVKGRFTISRDNAKNTVYLQMNSLKPEDTAVYYCNVKDEGNSQSHYDYWGQGTQVTVS" reported_result=binds

Report binding result for Sybody 10 (VHH) VHH: QVQLVESGGGLVQAGGSLRLSCAASGFPVESAEMEWYRQAPGKEREWVAAITSQGTITEYADSVKGRFTISRDNAKNTVYLQMNSLKPEDTAVYYCYVYVGASYIGQGTQVTVS
binds
